B1: MIA2 (parent)
chain: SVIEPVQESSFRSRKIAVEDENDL

# Variants of: B1
# assay text: protein stability index of a GFP-peptide fusion (GPS, HEK-293T) (PSI 1-6); higher = more stable;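 further: lentivirally expressed fusions sorted by FACS into six bins by GFP to DsRed ratio, PSI derived from sequencing read proportions per bin multiplied by bin number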
# assay setup: c terminus: a fixed tail appended
Assign class by protein stability index: not lower than 5 means Y; lower than 5 means N.

alteration | category
R12T | Y
Q7D | Y
E8M | N
E21Y | N
L24R | Y
D23I | N
E8F | N
Q7P | Y
D23T | N
V2F | N
V6K | Y
E19W | N
E8N | Y
S10K | Y
S1G | Y
F11T | Y
R14N | Y
D23F | N
